Reported concentration at 1 h values for the following compounds.
# experimentalProtocol: Blood-brain barrier penetration, brain:plasma ratio after tail vein injection
# runConditions: rat, plasma, intravenous

compound	readoutUnit	concentration at 1 h
COCCOCCOCCOCCOCCN(C)CCOC(c1ccccc1)c1ccccc1 [mPEG5-N-diphenhydramine]	ng/mL	415
COCCOCCOCCOCCOCCOCCOCCN(C)CCOC(c1ccccc1)c1ccccc1 [mPEG(7)-N-Diphenhydramine, mPEG7-N-diphenhydramine]	ng/mL	545

* * *

# experimentalProtocol: Pharmacokinetics and oral bioavailability in rats
# Type: in vivo
# runConditions: rat, plasma, oral, 5 mg/kg DPH-equivalent
Each entry below lists one item and its recorded AUC(0-inf) value.
measuredMetric: AUC(0-inf) (µg·h/mL)

molecule	measuredMetric	quantitativeReadout
COCCOCCOCCOCCOCCN(C)CCOC(c1ccccc1)c1ccccc1 [mPEG5-N-diphenhydramine]	AUC(0-inf)	0.0294
COCCOCCOCCOCCOCCOCCOCCN(C)CCOC(c1ccccc1)c1ccccc1 [mPEG(7)-N-Diphenhydramine, mPEG7-N-diphenhydramine]	AUC(0-inf)	0.0266

* * *

# experimentalProtocol: Pharmacokinetics and oral bioavailability in rats
# Assay type: in vivo
# runConditions: rat, plasma, oral, 5 mg/kg DPH-equivalent, read-out: T ½ (converted)
measuredMetric: half-life

compound	result
COCCOCCOCCOCCOCCOCCOCCN(C)CCOC(c1ccccc1)c1ccccc1 [mPEG(7)-N-Diphenhydramine, mPEG7-N-diphenhydramine]	28.2 min
COCCOCCOCCOCCOCCN(C)CCOC(c1ccccc1)c1ccccc1 [mPEG5-N-diphenhydramine]	22.8 min

* * *

# testedTarget: human recombinant H1 histamine receptors (Homo sapiens, UniProt P35367)
# experimentalProtocol: biochemical
# runConditions: Ki, first run, n=2 samples per data point
pKi: −log10 of the molar value.
measuredMetric: pKi

compound	testedTarget	quantitativeReadout
COCCOCCOCCOCCOCCOCCNCCOC(c1ccccc1)c1ccccc1 [mPEG(6)-NH-Diphenhydramine, mPEG6-NH-diphenhydramine]	human recombinant H1 histamine receptors (Homo sapiens, UniProt P35367)	5.72

* * *

# testedTarget: human recombinant H1 histamine receptors (Homo sapiens, UniProt P35367)
# experimentalProtocol: biochemical
# runConditions: Ki, repeated assay (asterisk), n=3 samples per data point
pKi: −log10 of the molar value.
Catalogue of pKi values

compound	pKi
COCCOCCOCCN(C)CCOC(c1ccccc1)c1ccccc1 [mPEG(3)-N-Diphenhydramine, mPEG3-N-diphenhydramine]	6.91
COCCOCCOCCOCCN(C)CCOC(c1ccccc1)c1ccccc1 [mPEG(4)-N-Diphenhydramine, mPEG4-N-diphenhydramine]	6.70

* * *

In this section we review reported pIC50 values for a set of compounds.
# testedTarget: Histamine (H1) (Homo sapiens, UniProt P35367)
# Sequence (P35367 whole entry): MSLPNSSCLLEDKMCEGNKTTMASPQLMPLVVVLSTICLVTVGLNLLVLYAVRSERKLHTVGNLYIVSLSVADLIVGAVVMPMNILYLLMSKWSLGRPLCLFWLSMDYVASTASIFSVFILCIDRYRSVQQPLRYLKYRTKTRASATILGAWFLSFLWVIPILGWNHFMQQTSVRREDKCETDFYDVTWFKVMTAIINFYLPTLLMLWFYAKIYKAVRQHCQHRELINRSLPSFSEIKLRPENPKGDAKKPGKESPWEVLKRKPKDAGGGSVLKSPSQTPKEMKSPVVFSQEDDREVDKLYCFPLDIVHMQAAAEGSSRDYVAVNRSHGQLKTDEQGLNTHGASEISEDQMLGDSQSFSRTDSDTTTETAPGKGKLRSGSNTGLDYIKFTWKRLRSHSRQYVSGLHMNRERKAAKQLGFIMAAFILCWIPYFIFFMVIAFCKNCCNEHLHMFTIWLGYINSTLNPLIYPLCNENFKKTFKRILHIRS
# experimentalProtocol: Histamine (H1) Binding Activity (Table I)
pIC50: −log10 of the molar value.
measuredMetric: pIC50

compound	testedTarget	measuredMetric	quantitativeReadout
COCCOCCOCCOCCOCCOCCOCCN(C)CCOC(c1ccccc1)c1ccccc1 [mPEG(7)-N-Diphenhydramine, mPEG7-N-diphenhydramine]	Histamine (H1) (Homo sapiens, UniProt P35367)	pIC50	5.76
COCCOCCOCCOCCOCCN(C)CCOC(c1ccccc1)c1ccccc1 [mPEG5-N-diphenhydramine]	Histamine (H1) (Homo sapiens, UniProt P35367)	pIC50	6.22

* * *

# testedTarget: cloned hERG channels stably expressed in HEK cells (Homo sapiens, UniProt Q12809)
# Sequence (Q12809 whole entry): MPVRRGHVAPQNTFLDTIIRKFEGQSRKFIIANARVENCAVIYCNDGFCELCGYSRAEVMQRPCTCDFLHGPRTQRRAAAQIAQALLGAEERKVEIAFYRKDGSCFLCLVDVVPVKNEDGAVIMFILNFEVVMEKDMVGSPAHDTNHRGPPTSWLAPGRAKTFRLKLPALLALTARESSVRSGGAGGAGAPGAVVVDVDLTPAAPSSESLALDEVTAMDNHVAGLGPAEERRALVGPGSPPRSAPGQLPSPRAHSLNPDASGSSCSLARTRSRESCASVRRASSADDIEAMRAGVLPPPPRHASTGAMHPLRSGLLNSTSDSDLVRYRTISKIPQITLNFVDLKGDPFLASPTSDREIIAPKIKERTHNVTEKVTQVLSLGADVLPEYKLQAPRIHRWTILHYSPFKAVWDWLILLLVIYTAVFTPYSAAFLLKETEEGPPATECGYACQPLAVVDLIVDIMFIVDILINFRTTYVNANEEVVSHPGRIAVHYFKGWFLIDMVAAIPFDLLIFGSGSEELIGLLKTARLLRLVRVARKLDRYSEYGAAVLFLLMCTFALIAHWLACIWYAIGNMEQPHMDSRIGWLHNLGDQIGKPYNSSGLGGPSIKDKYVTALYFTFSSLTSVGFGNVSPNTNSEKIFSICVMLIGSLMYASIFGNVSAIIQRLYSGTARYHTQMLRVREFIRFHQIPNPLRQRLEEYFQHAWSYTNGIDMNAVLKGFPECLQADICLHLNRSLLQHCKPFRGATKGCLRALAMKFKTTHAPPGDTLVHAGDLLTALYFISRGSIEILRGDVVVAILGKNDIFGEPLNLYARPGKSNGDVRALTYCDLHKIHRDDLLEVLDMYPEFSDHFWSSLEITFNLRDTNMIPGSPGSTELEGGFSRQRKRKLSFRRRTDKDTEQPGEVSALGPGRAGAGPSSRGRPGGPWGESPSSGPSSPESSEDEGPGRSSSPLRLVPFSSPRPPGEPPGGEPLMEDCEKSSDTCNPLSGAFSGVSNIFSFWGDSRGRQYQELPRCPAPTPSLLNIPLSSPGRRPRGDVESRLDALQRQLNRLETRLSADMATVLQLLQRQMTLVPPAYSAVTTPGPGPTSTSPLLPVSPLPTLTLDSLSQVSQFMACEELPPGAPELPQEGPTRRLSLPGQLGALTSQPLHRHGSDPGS
# experimentalProtocol: hERG current inhibition, electrophysiology
# runConditions: read-out: IC50 hERG channel; hERG current, HEK cells
measuredMetric: IC50 (µM)

compound	measuredMetric	quantitativeReadout
COCCOCCOCCOCCOCCOCCN(C)CCOC(c1ccccc1)c1ccccc1 [mPEG(6)-N-Diphenhydramine, mPEG6-N-diphenhydramine]	IC50	3.79

* * *

Each item that follows carries a reported clearance.
# experimentalProtocol: Pharmacokinetics and oral bioavailability in rats
# Format: in vivo
# runConditions: rat, plasma, IV, 1 mg/kg DPH-equivalent
measuredMetric: clearance

compound	result
COCCOCCOCCOCCOCCOCCOCCN(C)CCOC(c1ccccc1)c1ccccc1 [mPEG(7)-N-Diphenhydramine, mPEG7-N-diphenhydramine]	78.4 mL/min/kg
COCCOCCOCCOCCOCCN(C)CCOC(c1ccccc1)c1ccccc1 [mPEG5-N-diphenhydramine]	69.5 mL/min/kg

* * *

# testedTarget: cloned hERG channels stably expressed in HEK cells (Homo sapiens, UniProt Q12809)
# experimentalProtocol: hERG current inhibition, electrophysiology
measuredMetric: IC50

compound	result
COCCOCCOCCOCCOCCOCCOCCN(C)CCOC(c1ccccc1)c1ccccc1 [mPEG(7)-N-Diphenhydramine, mPEG7-N-diphenhydramine]	13 µM

* * *

# experimentalProtocol: Pharmacokinetics and oral bioavailability in rats
# Format: in vivo
# runConditions: rat, plasma, oral, 5 mg/kg DPH-equivalent, read-out: Tmax

compound	readoutUnit	Tmax
COCCOCCOCCOCCOCCOCCOCCN(C)CCOC(c1ccccc1)c1ccccc1 [mPEG(7)-N-Diphenhydramine, mPEG7-N-diphenhydramine]	min	15
COCCOCCOCCOCCOCCN(C)CCOC(c1ccccc1)c1ccccc1 [mPEG5-N-diphenhydramine]	min	15

* * *

# experimentalProtocol: Pharmacokinetics and oral bioavailability in rats
# Type: in vivo
# runConditions: rat, plasma, IV, 1 mg/kg DPH-equivalent
measuredMetric: AUC(0-inf) (ng·h/mL)

molecule	measuredMetric	readoutUnit	quantitativeReadout
COCCOCCOCCOCCOCCOCCOCCN(C)CCOC(c1ccccc1)c1ccccc1 [mPEG(7)-N-Diphenhydramine, mPEG7-N-diphenhydramine]	AUC(0-inf)	ng·h/mL	410
COCCOCCOCCOCCOCCN(C)CCOC(c1ccccc1)c1ccccc1 [mPEG5-N-diphenhydramine]	AUC(0-inf)	ng·h/mL	391

* * *

# experimentalProtocol: Pharmacokinetics and oral bioavailability in rats
# Assay type: in vivo
# runConditions: rat, plasma, IV, 1 mg/kg DPH-equivalent, read-out: T ½ (converted)
Documented half-life across a set of compounds
measuredMetric: half-life (min)

compound	readoutUnit	quantitativeReadout
COCCOCCOCCOCCOCCOCCOCCN(C)CCOC(c1ccccc1)c1ccccc1 [mPEG(7)-N-Diphenhydramine, mPEG7-N-diphenhydramine]	min	25.8
COCCOCCOCCOCCOCCN(C)CCOC(c1ccccc1)c1ccccc1 [mPEG5-N-diphenhydramine]	min	19.8

* * *

# Lookup of reported concentration at 1 h keyed by entry
# experimentalProtocol: Blood-brain barrier penetration, brain:plasma ratio after tail vein injection
# runConditions: rat, brain, intravenous
# Protocol: The four compounds were tested following intravenous injection to the tail vein in rats. After ensuring a single rat remained viable following a test dose, the rats (4 per condition) were dosed by tail vein injection and were sacrificed one hour later. […] Plasma was prepared and brain tissue homogenized to enable quantitation of drug content by LC-MS/MS. Concentrations of each compound were determined and brain:plasma ratios calculated accordingly.
measuredMetric: concentration at 1 h (ng/g)

compound	quantitativeReadout
COCCOCCOCCOCCOCCOCCOCCN(C)CCOC(c1ccccc1)c1ccccc1 [mPEG(7)-N-Diphenhydramine, mPEG7-N-diphenhydramine]	106
COCCOCCOCCOCCOCCN(C)CCOC(c1ccccc1)c1ccccc1 [mPEG5-N-diphenhydramine]	97.9

* * *

# experimentalProtocol: Pharmacokinetics and oral bioavailability in rats
# Format: in vivo
# runConditions: rat, plasma, oral 5 mg/kg vs IV 1 mg/kg, read-out: F (oral bioavailability)
Below, each of the compounds is paired with its reported bioavailability value.

compound	bioavailability [%]
COCCOCCOCCOCCOCCOCCOCCN(C)CCOC(c1ccccc1)c1ccccc1 [mPEG(7)-N-Diphenhydramine, mPEG7-N-diphenhydramine]	1.3
COCCOCCOCCOCCOCCN(C)CCOC(c1ccccc1)c1ccccc1 [mPEG5-N-diphenhydramine]	1.5

* * *

# testedTarget: Histamine (H1) (Homo sapiens, UniProt P35367)
# experimentalProtocol: Histamine (H1) Binding Activity (Table I)
# runConditions: read-out: IC50
For each record, check the reported IC50: if it is below 4000 nM write t, else write f.

compound	testedTarget	group
COCCOCCOCCOCCOCCOCCOCCN1CCN(C(c2ccccc2)c2ccc(Cl)cc2)CC1 (centres unmarked) [PEG5-Hydroxyzine, mPEG5-Hydroxyzine]	Histamine (H1) (Homo sapiens, UniProt P35367)	t
COCCOCCOCCOCCOCCOCCN(CCOC(c1ccccc1)c1ccccc1)CCOC(c1ccccc1)c1ccccc1 [mPEG6-N-(Diphenhydramine)2, mPEGn-N-(diphenhydramine)2]	Histamine (H1) (Homo sapiens, UniProt P35367)	f
COCCOCCOCCOCCOCCN1CCN(C(c2ccccc2)c2ccc(Cl)cc2)CC1 (centres unmarked) [PEG3-Hydroxyzine, mPEG3-Hydroxyzine]	Histamine (H1) (Homo sapiens, UniProt P35367)	t
COCCOCCOCCN1CCN(C(c2ccccc2)c2ccc(Cl)cc2)CC1 (centres unmarked) [PEG1 -Hydroxyzine, mPEG1-Hydroxyzine]	Histamine (H1) (Homo sapiens, UniProt P35367)	t

* * *

# experimentalProtocol: Pharmacokinetics and oral bioavailability in rats
# Assay type: in vivo
# runConditions: rat, plasma, oral, 5 mg/kg DPH-equivalent, read-out: Cmax
Measured Cmax accompanies every entry in the list below.

compound	readoutUnit	Cmax
COCCOCCOCCOCCOCCN(C)CCOC(c1ccccc1)c1ccccc1 [mPEG5-N-diphenhydramine]	ng/mL	53.6
COCCOCCOCCOCCOCCOCCOCCN(C)CCOC(c1ccccc1)c1ccccc1 [mPEG(7)-N-Diphenhydramine, mPEG7-N-diphenhydramine]	ng/mL	41.3
